# measurement protocol: qHTS Validation assay for Inhibitors of Plasmodium falciparum Dd2 growth in vitro; further: nearly all actives have a fitted effect of over 70% in size
# condition set: P. falciparum Dd2 in RBCs, SYBR Green growth, 72 h; series mostly up to 28.7 µM
The campaign covered roughly 4,100 compounds. About 1,600 (39%) were called active. Roughly 25% stayed inconclusive and do not appear here. The call rests on the fitted dose curve; in most records, active means well fitted inhibition curve with a large enough effect; inconclusive means small, poorly fitted or top-dose-only effect; inactive means no such curve, though single readings can be large or run the other way. The list shows a part of the results.
Can you answer with just one of these options? active, inactive

Worked set:
Ask: // param item: "COc1ccc(CNC[C@H]2O[C@H](Cc3cc(-c4ccc(OC)cc4)on3)CC[C@@H]2O)cc1" ; yields the recorded call
Reply: active

Ask: // param item: "CCCCN(C)CCNC(=O)c1cc2c(-c3cccc(OC)c3)nn(C)c2s1" ; yields the recorded call
Reply: active

Ask: // param item: O=C(NC1CC1)c1ccccc1OCC1CCCN(Cc2cccc3[nH]ccc23)C1 (configuration not stated) ; yields the recorded call
Reply: active

Ask: // param item: CCOc1cc(CNCC(O)c2ccccc2)cc(Cl)c1OC (configuration not stated) ; yields the recorded call
Reply: active

Ask: // param item: "NS(=O)(=O)c1ccc(CCNC(=O)c2ccc3nc(CCc4ccccc4)oc3c2)cc1" ; yields the recorded call
Reply: inactive

Continuing:
Ask: // param item: "O=C(COC(=O)c1cccc(Br)c1)NCCNC(=O)COC(=O)c1cccc(Br)c1" ; yields the recorded call
Reply: inactive

Ask: // param item: "Cc1ccc(S(=O)(=O)NC[C@H]2O[C@H](Cc3cc(-c4cccc(O)c4)on3)CC[C@@H]2O)cc1" ; yields the recorded call
Reply: inactive

Ask: // param item: "O=c1c2cc3c(cc2nc2sc(Nc4ccc(F)cc4F)nn12)OCO3" ; yields the recorded call
Reply: inactive

====

# measurement protocol: qHTS Validation assay for Inhibitors of Plasmodium falciparum Dd2 growth in vitro; further: nearly all actives have a fitted effect of over 70% in size
# condition set: P. falciparum Dd2 in RBCs, SYBR Green growth, 72 h; series mostly up to 28.7 µM
The whole screen tested about 4,100 compounds, of which about 1,600 (39%) were called active. About 25% were inconclusive and are not listed. Calls come from the whole dose curve; as a rule, active = well fitted inhibition curve with a large enough effect; inconclusive = small, poorly fitted or top-dose-only effect; inactive = no such curve, though single readings can be large or run the other way. This is one part of the list.
Can you answer with just one of these options? True = active, False = inactive

Worked set:
Ask: // param item: CCCc1cc(=O)oc2cc(C)cc(OC(C)C(=O)NCC(O)c3ccccc3)c12 (stereo not given) ; yields the recorded call
Reply: True

Ask: // param item: "CC(C)(C)c1ccc(C(=O)N2CCN(Cc3cc(=O)n4nc(-c5ccccc5F)sc4n3)CC2)cc1" ; yields the recorded call
Reply: False

Pending molecule:
Ask: // param item: "CCCS(=O)(=O)c1nc(S(=O)(=O)c2ccc(C)cc2)c(NCCCOC(C)C)s1" ; yields the recorded call
Reply: True

====

# measurement protocol: qHTS Validation assay for Inhibitors of Plasmodium falciparum Dd2 growth in vitro; further: nearly all actives have a fitted effect of over 70% in size; further: potency means the concentration at half of the fitted maximal effect
# condition set: P. falciparum Dd2 in RBCs, SYBR Green growth, 72 h; series mostly up to 28.7 µM
Out of some 4,100 compounds screened, about 1,600 (39%) were called active. Not shown: some 25% with an inconclusive outcome. Some of the results follow.
measured property: Potency

Study these solved cases before continuing.
Ask: Consider the compound "Cc1[nH]cnc1CSCCn1ccnc1-c1nccn1C" . State its measured Potency.
Reply: inactive

Ask: Consider the compound "CC(C)c1noc(-c2cn(C3CCN(C(=O)COc4ccccc4)CC3)nn2)n1" . State its measured Potency.
Reply: inactive

Ask: Consider the compound "CCCS(=O)(=O)NCCc1ncc(C)n1C(C)C" . State its measured Potency.
Reply: inactive

Ask: Consider the compound "CCn1ccc2sc(C)c(C(=O)N3CCN(c4ccc(F)cc4)CC3)c2c1=O" . State its measured Potency.
Reply: inactive

Ask: Consider the compound COc1cccc(Nc2ccc3c(n2)C(C)(C(=O)NC2CCC2)CN(C)C3)c1 (stereo unspecified) . State its measured Potency.
Reply: 15.3 µM (active)

As a next step, examine the compound that follows.
Ask: Consider the compound COc1ccc(C(C)NC(=S)NC2CCCC2)cc1OC (stereo unspecified) . State its measured Potency.
Reply: 6.68 µM (active)

These data points were gathered from PubChem BioAssay AID1347416.
